Hey, just so you know, these numbers are from patent US20240116985A1.

Listed here are binders together with their documented EC50.
Target: T1, full-length beta-Catenin (Uniprot ID P35222) (Homo sapiens (Human), UniProt P35222 2-781)
T1 construct: The assay text says 'full-length'; also called B-Catenin; bCat
T1 sequence: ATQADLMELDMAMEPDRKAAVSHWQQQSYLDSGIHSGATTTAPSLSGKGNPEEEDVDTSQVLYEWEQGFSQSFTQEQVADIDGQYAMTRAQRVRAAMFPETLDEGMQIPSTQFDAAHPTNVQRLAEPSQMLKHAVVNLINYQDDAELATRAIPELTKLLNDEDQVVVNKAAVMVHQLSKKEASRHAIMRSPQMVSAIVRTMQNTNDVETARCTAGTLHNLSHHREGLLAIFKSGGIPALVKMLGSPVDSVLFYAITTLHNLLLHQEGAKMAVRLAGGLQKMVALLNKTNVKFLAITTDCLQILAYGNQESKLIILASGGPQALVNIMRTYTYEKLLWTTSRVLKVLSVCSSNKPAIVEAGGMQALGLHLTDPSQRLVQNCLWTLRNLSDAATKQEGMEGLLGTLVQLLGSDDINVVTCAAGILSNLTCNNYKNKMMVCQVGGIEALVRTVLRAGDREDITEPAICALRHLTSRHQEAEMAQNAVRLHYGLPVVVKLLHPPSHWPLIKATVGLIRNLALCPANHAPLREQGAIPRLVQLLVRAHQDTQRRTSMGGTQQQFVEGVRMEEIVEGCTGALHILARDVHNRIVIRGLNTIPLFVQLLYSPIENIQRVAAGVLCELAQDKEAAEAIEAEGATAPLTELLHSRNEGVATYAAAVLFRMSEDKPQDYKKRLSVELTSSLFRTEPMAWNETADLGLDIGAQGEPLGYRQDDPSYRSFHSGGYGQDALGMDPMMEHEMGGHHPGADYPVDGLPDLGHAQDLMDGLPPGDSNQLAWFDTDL
Assay: AlphaScreen competition vs biotin-TCF4(10-53) on full-length beta-catenin
Starred links: 1 amine or outer side, 2 acyl side, 3 side chain; linkers in the order of their positions; H or OH if unused. Positions of bridges follow the written chain, without caps; N, C: chain ends. Non-standard residues stand in square brackets, D forms with d. Primed or numbered codes have the meaning given here. PyrS″ = (S)-1-((allyloxy)carbonyl)-3-aminopyrrolidine-3-carboxylic acid (stapling residue), C=CCOC(=O)N1CC[C@@](N[*:1])(C(=O)[*:2])C1; SeN = (S)-5-(((allyloxy)carbonyl)(methyl)amino)-2-amino-2-methylpentanoic acid, C=CCOC(=O)N(C)CCC[C@](C)(N[*:1])C(=O)[*:2]; R8 = C=CCCCCCC[C@@](C)(N)C(=O)O; R5 = C=CCCC[C@@](C)(N)C(=O)O
Use µM as the unit, but write only the number.

Sample answers from the record:
Ac-FDA[R8]DEAAFV[PyrS″]FWQ-NH2 (staple 4-11, Stapled peptide composition) [I-3] :: 9.13
Ac-FDA[R5]DDAAFV[SeN]FWQ-NH2 (staple 4-11, Stapled peptide composition) [I-25] :: 7.22

Consider the additional binder presented here.
Problem: Identify measured EC50 associated with Ac-FDA[R8]DEAAFV[PyrS″]FWQ-NH2 (staple 4-11; not fully specified; printed as Ac-Phe-Asp-Ala-R8-Asp-Glu-Ala-Ala-Phe-Val-PyrS-Phe-Trp-Gln-NH2, Stapled peptide composition) [I-4]
Result: 5.89
